Value source: patent US20240116985A1

- Assayed Target: beta-catenin/TCF4 engagement (Homo sapiens)
- Construct: expressed in transfected cells; host or cells: HEK293
- Sequence (P35222 whole entry): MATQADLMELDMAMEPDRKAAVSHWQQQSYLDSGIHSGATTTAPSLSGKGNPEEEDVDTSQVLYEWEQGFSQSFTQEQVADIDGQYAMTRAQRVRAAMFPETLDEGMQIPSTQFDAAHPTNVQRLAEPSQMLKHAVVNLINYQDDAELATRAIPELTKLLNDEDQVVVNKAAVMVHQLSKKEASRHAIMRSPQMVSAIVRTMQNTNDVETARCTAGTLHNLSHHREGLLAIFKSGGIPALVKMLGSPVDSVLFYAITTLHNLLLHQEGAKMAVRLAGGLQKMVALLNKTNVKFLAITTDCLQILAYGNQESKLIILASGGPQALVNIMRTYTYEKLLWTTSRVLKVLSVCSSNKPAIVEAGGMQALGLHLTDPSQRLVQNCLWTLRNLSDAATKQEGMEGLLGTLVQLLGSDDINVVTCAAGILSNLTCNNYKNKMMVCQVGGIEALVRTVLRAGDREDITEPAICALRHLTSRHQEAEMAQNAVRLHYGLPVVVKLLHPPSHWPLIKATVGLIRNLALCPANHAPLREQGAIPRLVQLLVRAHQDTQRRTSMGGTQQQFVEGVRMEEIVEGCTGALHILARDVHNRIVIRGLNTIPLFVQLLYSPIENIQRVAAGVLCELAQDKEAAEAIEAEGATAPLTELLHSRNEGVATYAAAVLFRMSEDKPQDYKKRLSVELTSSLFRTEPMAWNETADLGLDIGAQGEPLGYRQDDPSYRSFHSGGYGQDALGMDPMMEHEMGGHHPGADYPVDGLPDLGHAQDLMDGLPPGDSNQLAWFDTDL
- Protocol Summary: Nano-BRET target engagement assay (B-cat-Halo & TCF4-Luc in HEK293 cells)
- Format: cell-based
- Experimental Conditions: read-out: NanoBRET Abs IC50
Reported Property: pIC50
Give bare numbers, as −log10 of the molar value.

Q: Item CC(=O)N1CCC[C@]12CC=CCCCC1(CCCC=CCCCOC(=O)N3CC[C@@](C(=O)N[C@@H](Cc4ccsc4)C(=O)N[C@@H](Cc4csc5ccccc45)C(=O)N[C@@H](CCC(N)=O)C(N)=O)(C3)NC(=O)[C@H](CCC(=O)N3CCOCC3)NC(=O)[C@H](Cc3ccccc3)NC(=O)[C@H](C)NC(=O)[C@H](C)NC(=O)[C@H](CN(CC(=O)O)CC(F)(F)F)NC(=O)[C@H](CC(=O)O)NC1=O)NC(=O)[C@H](CC(C)(C)C)NC(=O)[C@H](CC(=O)O)NC2=O (stereo partly drawn) : provide pIC50
Ans: 5.42

Further cases:
Q: Item CC(=O)N1CCC[C@]12CC=CCCCC1(CCCC=CCCCOC(=O)N3CC[C@@](C(=O)N[C@@H](Cc4ccccc4Cl)C(=O)N[C@@H](Cc4csc5ccccc45)C(=O)N[C@H](C(N)=O)C(C)C)(C3)NC(=O)[C@H](C)NC(=O)[C@H](Cc3ccccc3)NC(=O)[C@H](C)NC(=O)[C@H](C)NC(=O)[C@H](Cc3cccc(C(=O)O)c3)NC(=O)[C@H](CC(=O)O)NC1=O)NC(=O)[C@H](CC(C)(C)C)NC(=O)[C@H](CC(=O)O)NC2=O (stereo partly drawn) : provide pIC50
Ans: 4.75

* * *

- Assayed Target: full-length beta-Catenin (Uniprot ID P35222) (Homo sapiens)
- Construct: 10 nM full-length beta-Catenin (Uniprot ID P35222)
- Protocol Summary: Fluorescence polarization IC50 (beta-catenin / 5FAM-TCF4 10-53 competition)
- Format: binding
- Experimental Conditions: fluorescence polarization; read-out: beta-Catenin FP IC50
Decide using IC50 alone. Strictly below 30 nM: Criterion met. Equal to or above 30 nM: Criterion not met.

Q: Quick check: IC50 of CC[C@@H]1NC(=O)[C@H](Cc2ccccc2)NC(=O)[C@H](C)NC(=O)C(C)(C)NC(=O)[C@H](Cc2cccc(C(=O)O)c2)NC(=O)[C@H](CC(=O)O)NC(=O)C2(CCCC=CCCCOC(=O)N3CC[C@@](C(=O)N[C@@H](Cc4ccsc4)C(=O)N[C@@H](Cc4csc5ccccc45)C(=O)N[C@@H](CCC(=O)N4CCCCC4)C(=O)N[C@@H](C)C(N)=O)(C3)NC1=O)CCCC=CC[C@]1(CCCN1C(C)=O)C(=O)N[C@@H](CC(=O)O)C(=O)N[C@@H](CC(C)(C)C)C(=O)N2 (stereo partly drawn) under 30 nM?
Ans: Criterion met

Further cases:
Q: Quick check: IC50 of CC(=O)N1CCC[C@]12CC=CCCCC1(CCCC=CCCCOC(=O)N3CC[C@@](C(=O)N[C@@H](Cc4ccsc4)C(=O)N[C@@H](Cc4csc5ccccc45)C(=O)N[C@@H](CCC(N)=O)C(N)=O)(C3)NC(=O)[C@H](CC(N)=O)NC(=O)[C@H](Cc3ccccc3)NC(=O)[C@H](C)NC(=O)[C@H](C)NC(=O)[C@H]([C@@H](C)O)NC(=O)[C@H](CC(N)=O)NC1=O)NC(=O)[C@H](CC(C)(C)C)NC(=O)[C@H](Cc1ccccc1C(=O)O)NC2=O (single isomer, unassigned) [I-2137] under 30 nM?
Ans: Criterion not met

Q: Quick check: IC50 of CC(=O)N1CCC[C@]12CC=CCCCC1(CCCC=CCCCOC(=O)N3CC[C@@](C(=O)N[C@@H](Cc4ccccc4C(F)(F)F)C(=O)N[C@@H](Cc4csc5ccccc45)C(=O)N[C@@H](CCC(=O)N4CCOCC4)C(N)=O)(C3)NC(=O)[C@H](CCC(=O)N(C)C)NC(=O)[C@H](Cc3ccccc3)NC(=O)[C@H](C)NC(=O)[C@H](C)NC(=O)[C@H](Cc3cccc(C(=O)O)c3)NC(=O)[C@H](CC(=O)O)NC1=O)NC(=O)[C@H](CC(C)(C)C)NC(=O)[C@H](CC(=O)O)NC2=O (stereo partly drawn) [I-2545] under 30 nM?
Ans: Criterion met

Q: Quick check: IC50 of CC(=O)N1CCC[C@]12CC=CCCCC1(CCCC=CCCCOC(=O)N3CC[C@@](C(=O)N[C@@H](Cc4ccccc4Cl)C(=O)N[C@@H](Cc4csc5ccccc45)C(=O)N[C@@H](C)CO)(C3)NC(=O)[C@H](CC(C)C)NC(=O)[C@H](Cc3ccccc3)NC(=O)[C@H](C)NC(=O)[C@H](C)NC(=O)[C@H](CC(=O)O)NC(=O)[C@H](CC(=O)O)NC1=O)NC(=O)[C@H](CC(C)(C)C)NC(=O)[C@H](CC(=O)O)NC2=O (stereo partly drawn) under 30 nM?
Ans: Criterion not met

Q: Quick check: IC50 of CC(=O)N1CCC[C@]12CC=CCCCC1(CCCC=CCCCOC(=O)N3CC[C@@](C(=O)N[C@@H](Cc4ccsc4)C(=O)N[C@@H](Cc4csc5ccccc45)C(=O)N[C@@H](CCC(N)=O)C(N)=O)(C3)NC(=O)[C@H](CC(C)C)NC(=O)[C@H](Cc3ccccc3)NC(=O)[C@H](C)NC(=O)[C@H](C)NC(=O)[C@H](CN(CCCC(F)(F)F)CC(=O)O)NC(=O)[C@H](CC(=O)O)NC1=O)NC(=O)[C@H](CC(C)(C)C)NC(=O)[C@H](CC(=O)O)NC2=O (stereo partly drawn) under 30 nM?
Ans: Criterion met

Q: Quick check: IC50 of CC(=O)N1CCC[C@]12CC=CCCCC1(CCCC=CCCCOC(=O)N3CC(C(=O)N[C@@H](Cc4ccsc4)C(=O)N[C@@H](Cc4csc5ccccc45)C(=O)N[C@@H](CCC(N)=O)C(N)=O)(C3)NC(=O)[C@H](CC(C)C)NC(=O)[C@H](Cc3ccccc3)NC(=O)[C@H](C)NC(=O)C(C)(C)NC(=O)[C@H](Cc3cccc(C(=O)O)c3)NC(=O)[C@H](CC(=O)O)NC1=O)NC(=O)[C@H](CC(C)(C)C)NC(=O)[C@H](CC(=O)O)NC2=O (stereo partly drawn) under 30 nM?
Ans: Criterion not met

Q: Quick check: IC50 of CC(=O)N1CCC[C@]12CC=CCCCC1(CCCC=CCCCCCC[C@@](C)(C(=O)N[C@@H](Cc3cccc(F)c3)C(=O)N[C@@H](Cc3csc4ccccc34)C(=O)N[C@@H](CCC(N)=O)C(N)=O)NC(=O)[C@H](C(C)C)NC(=O)[C@H](Cc3ccccc3)NC(=O)[C@H](C)NC(=O)[C@H](C)NC(=O)[C@H](Cc3c[nH]cn3)NC(=O)[C@H](CC(=O)O)NC1=O)NC(=O)[C@H](C)NC(=O)[C@H](CC(=O)O)NC2=O (stereo partly drawn) [I-397] under 30 nM?
Ans: Criterion not met

Q: Quick check: IC50 of CC(=O)N1CC2CC1C(=O)N[C@@H](CC(=O)O)C(=O)N[C@@H](CC(C)(C)C)C(=O)NC1(CCCCCCCCOC(=O)N3CC[C@@](C(=O)N[C@@H](Cc4ccsc4)C(=O)N[C@@H](Cc4csc5ccccc45)C(=O)N[C@@H](CCC(N)=O)C(N)=O)(C3)NC(=O)[C@H](CC(C)C)NC(=O)[C@H](Cc3ccccc3)NC(=O)[C@H](C)NC(=O)[C@H](C)NC(=O)[C@H](CN(CC(=O)O)CC(F)(F)F)NC(=O)[C@H](CC(=O)O)NC1=O)CCCCCCOc1cccc(c1)C(=O)O2 (stereo partly drawn) under 30 nM?
Ans: Criterion not met

Q: Quick check: IC50 of CC(=O)N1CCC[C@]12CC=CCCCC1(CCCC=CCCCOC(=O)N3CC[C@@](C(=O)N[C@@H](Cc4ccsc4)C(=O)N[C@@H](Cc4csc5ccccc45)C(=O)N[C@@H](Cc4ccccc4)C(N)=O)(C3)NC(=O)[C@H](CC(C)C)NC(=O)[C@H](Cc3ccccc3)NC(=O)[C@H](C)NC(=O)C(C)(C)NC(=O)[C@H](Cc3cccc(C(=O)O)c3)NC(=O)[C@H](CC(=O)O)NC1=O)NC(=O)[C@H](CC(C)(C)C)NC(=O)[C@H](CC(=O)O)NC2=O (stereo partly drawn) under 30 nM?
Ans: Criterion not met

* * *

Please go through the items and note down their pIC50.
- Assayed Target: full-length beta-Catenin (Uniprot ID P35222) (Homo sapiens, UniProt P35222)
- Construct: 10 nM full-length beta-Catenin (Uniprot ID P35222)
- Protocol Summary: Fluorescence polarization IC50 (beta-catenin / 5FAM-TCF4 10-53 competition)
- Format: binding
- Experimental Conditions: read-out: FP EC50
One number for each entry, as −log10 of the molar value.

Working through the 3 molecules below one at a time, give pIC50 for each.
1. CC(=O)N1CCC[C@]12CC=CCCCC1(CCCC=CCCCCCC[C@@](C)(C(=O)N[C@@H](Cc3ccccc3)C(=O)N[C@@H](Cc3csc4ccccc34)C(=O)N[C@@H](CCC(N)=O)C(N)=O)NC(=O)[C@H](CCC(N)=O)NC(=O)[C@H](Cc3cccs3)NC(=O)[C@H](C)NC(=O)[C@H](C)NC(=O)[C@H](CCC(=O)O)NC(=O)[C@H](CC(=O)O)NC1=O)NC(=O)[C@H](C)NC(=O)[C@H](CC(=O)O)NC2=O (stereo partly drawn) [I-487]
2. CC[C@H](C)[C@@H]1NC(=O)[C@H](CC(=O)O)NC(=O)[C@]2(CC=CCCCC3(CCCC=CCCCCCC[C@@](C)(C(=O)N[C@@H](Cc4ccccc4)C(=O)N[C@@H](Cc4csc5ccccc45)C(=O)N[C@@H](CO)C(N)=O)NC(=O)[C@H](CCC(N)=O)NC(=O)[C@H](Cc4ccccc4)NC(=O)[C@H](C)NC(=O)[C@H](C)NC(=O)[C@H](CCC(=O)O)NC(=O)[C@H](CC(=O)O)NC3=O)NC1=O)CCCN2C(C)=O (stereo partly drawn) [I-639]
3. CC[C@H](C)[C@@H]1NC(=O)[C@H](CC(=O)O)NC(=O)[C@]2(CC=CCCCC3(CCCC=CCCCCCC[C@@](C)(C(=O)N[C@@H](Cc4ccccc4)C(=O)N[C@@H](Cc4csc5ccccc45)C(=O)N[C@@H](CCC(N)=O)C(N)=O)NC(=O)[C@H](CCC(N)=O)NC(=O)[C@H](Cc4ccccc4)NC(=O)[C@H](C)NC(=O)[C@H](C)NC(=O)[C@H](Cc4ccc(C(=O)O)cc4)NC(=O)[C@H](CC(=O)O)NC3=O)NC1=O)CCCN2C(C)=O (stereo partly drawn) [I-607]

Ans:
7.35
6.96
6.60
